A short record of HepSE_Combined Scores observed with Hepatotoxicity follows.

| molecule | HepSE_Combined Scores |
| --- | --- |
| O=C(O)CCCc1ccc(N(CCCl)CCCl)cc1 | 1 |
| C[C@@H]1[C@H](O)[C@@H](C)/C=C/C=C/C=C/C=C/C=C/C=C/C=C/[C@H](O[C@@H]2O[C@H](C)[C@@H](O)[C@H](N)[C@@H]2O)C[C@@H]2O[C@](O)(C[C@@H](O)C[C@@H](O)[C@H](O)CC[C@@H](O)C[C@@H](O)CC(=O)O[C@H]1C)C[C@H](O)[C@H]2C(=O)O | 7 |
| Cc1nccn1CC1CCc2c(c3ccccc3n2C)C1=O (stereo not given) | 2 |
| N[C@@H](Cc1ccc(N(CCCl)CCCl)cc1)C(=O)O | 3 |
| CC(C)[C@H](N)C(=O)OCC(CO)OCn1cnc2c(=O)nc(N)[nH]c21 (stereo not given in full) | 2 |

---

Tested on: Hepatotoxicity
HepSE_jaundice values by entry

| compound | HepSE_jaundice |
| --- | --- |
| CCC1(c2ccccc2)C(=O)NCNC1=O [PRIMIDONE] | 0 |
| C=CC(N)CCC(=O)O (stereo not given) [VIGABATRIN] | 0 |
| C=CC1=C(C(=O)O)N2C(=O)[C@@H](NC(=O)/C(=N\OCC(=O)O)c3csc(N)n3)[C@H]2SC1 [CEFIXIME] | 1 |
| CCCOc1ccc(C(=O)OCCN(CC)CC)cc1N [PROPARACAINE] | 0 |
| C[C@H](CS)C(=O)N1CCC[C@H]1C(=O)O [CAPTOPRIL] | 1 |

---

A short record of DILI positive/negative observed with Hepatotoxicity follows.
readout-name: DILI positive/negative

| compound | readout-name | reported |
| --- | --- | --- |
| CCOC(=O)C(C)(C)Oc1ccc(Cl)cc1 [CLOFIBRATE] | DILI positive/negative | 1 |
| CC1(C)[C@@H](OC(=O)CCC(=O)[O-])CC[C@]2(C)[C@H]3C(=O)C=C4[C@@H]5C[C@@](C)(C(=O)[O-])CC[C@]5(C)CC[C@@]4(C)[C@]3(C)CC[C@@H]12.[Na+].[Na+] [CARBENOXOLONE SODIUM] | DILI positive/negative | 0 |
| Cn1nnnc1SCC1=C(C(=O)[O-])N2C(=O)[C@@H](NC(=O)[C@H](O)c3ccccc3)[C@H]2SC1.[Na+] [CEFAMANDOLE SODIUM] | DILI positive/negative | 1 |
| O=C(O)c1cc(-c2ccccc2)nc2ccccc12 | DILI positive/negative | 1 |
| CN1CCC(=C2c3ccccc3CCc3cccnc32)CC1.O=C(O)/C=C\C(=O)O.O=C(O)/C=C\C(=O)O [AZATADINE MALEATE] | DILI positive/negative | 1 |
| C#CCN(C)Cc1ccccc1 | DILI positive/negative | 0 |
| CC[N+](C)(C)c1cccc(O)c1.[Cl-] [EDROPHONIUM CHLORIDE] | DILI positive/negative | 0 |
| Cc1cc(NC(=O)C2=C(O)c3ccccc3S(=O)(=O)N2C)no1 | DILI positive/negative | 0 |
| Nc1nc(Cl)nc2c1ncn2[C@H]1C[C@H](O)[C@@H](CO)O1 | DILI positive/negative | 0 |
| CCO[C@@H](Cc1ccc(OCCN2c3ccccc3Oc3ccccc32)cc1)C(=O)O | DILI positive/negative | 0 |
| Nc1ncnc2c1ncn2[C@@H]1O[C@H](CO)[C@@H](O)[C@@H]1O | DILI positive/negative | 0 |
| CCSCC[C@H](N)C(=O)O | DILI positive/negative | 1 |
| CN(C)[C@@H]1C(O)=C(C(N)=O)C(=O)[C@@]2(O)C(O)=C3C(=O)c4c(O)ccc(Cl)c4[C@@](C)(O)[C@H]3C[C@@H]12.Cl [CHLORTETRACYCLINE HYDROCHLORIDE] | DILI positive/negative | 1 |
| C[C@H](CCC(=O)O)[C@H]1CC[C@H]2[C@@H]3[C@H](O)C[C@@H]4C[C@H](O)CC[C@]4(C)[C@H]3CC[C@]12C | DILI positive/negative | 1 |
| CN1c2ccccc2C(NCCCCCCC(=O)O)c2ccc(Cl)cc2S1(=O)=O (centres undefined) | DILI positive/negative | 1 |
| CC(=O)CC(c1ccc([N+](=O)[O-])cc1)c1c(O)c2ccccc2oc1=O (centres undefined) | DILI positive/negative | 1 |
| CC(c1cc2ccccc2s1)N(O)C(N)=O (centres undefined) | DILI positive/negative | 1 |
| CO[C@@H]1[C@@H](OC(N)=O)[C@@H](O)[C@H](Oc2ccc3c(O)c(NC(=O)c4ccc(O)c(CC=C(C)C)c4)c(=O)oc3c2C)OC1(C)C | DILI positive/negative | 1 |
| CCC1(c2ccccc2)C(=O)NC(=O)N(C)C1=O (centres undefined) | DILI positive/negative | 1 |
| COC(=O)Nc1nc2ccc(C(=O)c3cccs3)cc2[nH]1 | DILI positive/negative | 0 |
| CC[N+](CC)(CC)CCOc1cccc(OCC[N+](CC)(CC)CC)c1OCC[N+](CC)(CC)CC.[I-].[I-].[I-] [GALLAMINE TRIETHIODIDE] | DILI positive/negative | 0 |
| CO[C@@]1(NC(=O)C(C(=O)[O-])c2ccc(O)cc2)C(=O)N2C(C(=O)[O-])=C(CSc3nnnn3C)CO[C@@H]21.[Na+].[Na+] (some centres undefined) [MOXALACTAM DISODIUM] | DILI positive/negative | 0 |
| Cl.O=C(O)CCCCCCNC1c2ccccc2CCc2ccccc21 [AMINEPTINE HYDROCHLORIDE] | DILI positive/negative | 1 |
| Nc1c(CC(=O)O)cccc1C(=O)c1ccc(Br)cc1 | DILI positive/negative | 1 |
| CCCN(CCC)C(=O)Cc1c(-c2ccc(Cl)cc2)nc2ccc(Cl)cn12 | DILI positive/negative | 1 |
| C=CCO | DILI positive/negative | 1 |
| O=C1O[C@H]([C@@H](O)CO)C(O)=C1O | DILI positive/negative | 0 |
| O=c1[nH]c(=O)n([C@@H]2O[C@H](CO)[C@@H](O)[C@@H]2F)cc1I | DILI positive/negative | 1 |
| CN(C)CCN(Cc1cccs1)c1ccccn1 | DILI positive/negative | 1 |
| Brc1ccccc1 | DILI positive/negative | 1 |
| CC(=O)c1ccc(S(=O)(=O)NC(=O)NC2CCCCC2)cc1 [ACETOHEXAMIDE] | DILI positive/negative | 1 |
| Nc1ccc(C(=O)O)c(O)c1 | DILI positive/negative | 1 |
| Cl.Nc1ccc(/N=N/c2ccccc2)c(N)n1 [PHENAZOPYRIDINE HYDROCHLORIDE] | DILI positive/negative | 1 |
| O=C1NCN(c2ccccc2)C12CCN(CCCC(c1ccc(F)cc1)c1ccc(F)cc1)CC2 | DILI positive/negative | 1 |

---

A short record of HepSE_hepatic failure observed with Hepatotoxicity follows.
*1 amine or outer side, *2 acyl side, *3 side chain or, on linkers, in order; H or OH if unused. Where a SMILES comes first, the peptide text is derived from it. Bridges are numbered along the chain shown (N, C = ends). [ ]: non-standard residue; d: D form. The star is where a group is joined. hTyr(3S-OH,4S-OH,3'-OSO3H) = N[C@H](C(=O)O)[C@H](O)[C@@H](O)c1ccc(O)c(OS(=O)(=O)O)c1; Orn(4R-OH,5R-OH) = O=C([C@H](C[C@@H](O)[C@@H](O)N[*:3])N[*:1])[*:2]; Pro(3S-OH,4S-Me) = C[C@H]1CN[C@H](C(=O)O)[C@H]1O; X1 = CCCCCOc1ccc(-c2cc(-c3ccc(C(=O)*)cc3)no2)cc1; Gln(3R-OH) = NC(=O)C[C@@H](O)[C@H](N)C(=O)O; Hyp = O=C(O)[C@@H]1C[C@@H](O)CN1
readout-name: HepSE_hepatic failure

| molecule | target-desc | reported |
| --- | --- | --- |
| CCCCCOc1ccc(-c2cc(-c3ccc(C(=O)N[C@H]4C[C@@H](O)[C@@H](O)NC(=O)[C@@H]5[C@@H](O)[C@@H](C)CN5C(=O)[C@H]([C@H](O)CC(N)=O)NC(=O)[C@H]([C@H](O)[C@@H](O)c5ccc(O)c(OS(=O)(=O)O)c5)NC(=O)[C@@H]5C[C@@H](O)CN5C(=O)[C@H]([C@@H](C)O)NC4=O)cc3)no2)cc1 [MICAFUNGIN] (X1-[Orn(4R-OH,5R-OH)]T[Hyp][hTyr(3S-OH,4S-OH,3'-OSO3H)][Gln(3R-OH)][Pro(3S-OH,4S-Me)]; lactam 1-C) | Hepatotoxicity | 1 |
| CC[C@@]1(O)C(=O)OCc2c1cc1n(c2=O)Cc2cc3c(CN(C)C)c(O)ccc3nc2-1 [TOPOTECAN] | Hepatotoxicity | 0 |
| Cc1cccc(CN2CCN(C(c3ccccc3)c3ccc(Cl)cc3)CC2)c1 (configuration not stated) [MECLIZINE] | Hepatotoxicity | 0 |
| Nc1nc2c(ncn2COCCO)c(=O)[nH]1 [ACYCLOVIR] | Hepatotoxicity | 0 |
| CCCC1O[C@@H]2C[C@H]3[C@@H]4CCC5=CC(=O)C=C[C@]5(C)[C@H]4[C@@H](O)C[C@]3(C)[C@]2(C(=O)CO)O1 (some centres not stated) [BUDESONIDE] | Hepatotoxicity | 0 |
| CN(C)CC/C=C1/c2ccccc2COc2ccc(CC(=O)O)cc21 [OLOPATADINE] | Hepatotoxicity | 0 |
| Clc1ccc2c(c1)C(N1CCNCC1)=Nc1ccccc1O2 [AMOXAPINE] | Hepatotoxicity | 0 |
| O=NN(CCCl)C(=O)NCCCl [CARMUSTINE] | Hepatotoxicity | 0 |
| CNCCC(Oc1ccc(C(F)(F)F)cc1)c1ccccc1 (configuration not stated) [FLUOXETINE] | Hepatotoxicity | 1 |
| O=C(CCCN1CCC(O)(c2ccc(Cl)cc2)CC1)c1ccc(F)cc1 [HALOPERIDOL] | Hepatotoxicity | 0 |
| Cc1ccc(C)c(OCCCC(C)(C)C(=O)O)c1 [GEMFIBROZIL] | Hepatotoxicity | 0 |
| Oc1ncnc2[nH]ncc12 [ALLOPURINOL] | Hepatotoxicity | 0 |
| OC(CNCC(O)C1CCc2cc(F)ccc2O1)C1CCc2cc(F)ccc2O1 (configuration not stated) [NEBIVOLOL] | Hepatotoxicity | 0 |
| CC(C)Cc1ccc(C(C)C(=O)O)cc1 (configuration not stated) [IBUPROFEN] | Hepatotoxicity | 1 |
| CCCCCCCN(CC)CCCC(O)c1ccc(NS(C)(=O)=O)cc1 (configuration not stated) [IBUTILIDE] | Hepatotoxicity | 0 |
| CC(C)CC(N(C)C)C1(c2ccc(Cl)cc2)CCC1 (configuration not stated) [SIBUTRAMINE] | Hepatotoxicity | 0 |
| [Mg] | Hepatotoxicity | 0 |

Sourced from ChEMBL document CHEMBL1909294
